# assay-text: In vitro dissociation in blood plasma of rabbit
# Type: in vitro ADME, New Zealand white rabbits
# details: fresh New Zealand white rabbit plasma, 37° C., 2 min
Where a name gives a salt, the structure may show the parent alone.
Examples of molecules with documented Sampling time/Dissociation percent (%) 2 min follow.
Report only the number, with the unit % understood.

1) CC(=O)OC1C(=O)C23CC2CC2OCC2(OC(C)=O)C3C(OC(=O)c2ccccc2)C2(O)CC(OC(=O)C(OC(=O)C(F)CC(C)N(C)C)C(NC(=O)OC(C)(C)C)c3ccccc3)C(C)=C1C2(C)C.CS(=O)(=O)O (stereo not shown)    63.2
2) CO[C@H]1C(=O)[C@]2(C)[C@@H](OC)C[C@H]3OC[C@@]3(OC(C)=O)[C@H]2[C@H](OC(=O)c2ccccc2)[C@]2(O)C[C@H](OC(=O)[C@H](OC(=O)[C@H](F)CCN(C)C)[C@@H](NC(=O)OC(C)(C)C)c3ccccc3)C(C)=C1C2(C)C [Compound 07, hydrochloride]    79.2

Summary for this molecule, COC1C(=O)C2(C)C(OC)CC3OCC3(OC(C)=O)C2C(OC(=O)c2ccccc2)C2(O)CC(OC(=O)C(OC(=O)C(CCN)C(F)F)C(NC(=O)OC(C)(C)C)c3ccccc3)C(C)=C1C2(C)C.O=S(=O)([O-])O.[Na+] (stereo not shown) : Sampling time/Dissociation percent (%) 2 min is 38.1

Summary for this molecule, CC(=O)OC12COC1CCC1(C)C3OC(CN(C)C)OC3C3=C(C)C(OC(=O)C(OC(=O)C(F)CC(C)N(C)C)C(NC(=O)OC(C)(C)C)c4ncccc4F)CC(O)(C(OC(=O)c4ccccc4)C12)C3(C)C.CS(=O)(=O)O (stereo not shown) : Sampling time/Dissociation percent (%) 2 min is 62.7

---

# System: human prostate cancer PC-3
# assay-text: Inhibitory activity of docetaxel derivatives on subcutaneously xenografted tumor PC-3 in nude mice
# Format: in vivo
# details: D20; 33.6 mg/kg, D0 IV; PC-3 xenograft in nude mice
property-measured: Tumor volume (mm^3) (D20)
Report only the number, with the unit mm^3 understood.

1) CCN(CC)CCC(F)C(=O)OC(C(=O)OC1CC2(O)C(OC(=O)c3ccccc3)C3C4(OC(C)=O)COC4CC(O)C3(C)C(=O)C(O)C(=C1C)C2(C)C)C(NC(=O)OC(C)(C)C)c1ccccc1.O=C(O)C=CC(=O)O (stereo not drawn)    32.4
2) CC(=O)O[C@@]12CO[C@@H]1C[C@H](O)[C@@]1(C)C(=O)[C@H](O)C3=C(C)[C@@H](OC(=O)[C@H](OC(=O)[C@@H](CCN(C)C)C(F)(F)F)[C@@H](NC(=O)OC(C)(C)C)c4ccccc4)C[C@@](O)([C@@H](OC(=O)c4ccccc4)[C@H]21)C3(C)C.CS(=O)(=O)O    34.5

For the next question, use this molecule.
Summary for this molecule, CC(=O)O[C@@]12CO[C@@H]1C[C@H](O)[C@@]1(C)C(=O)[C@H](O)C3=C(C)[C@@H](OC(=O)[C@H](OC(=O)C(F)CCN(C)C)[C@@H](NC(=O)OC(C)(C)C)c4ccccc4)C[C@@](O)([C@@H](OC(=O)c4ccccc4)[C@H]21)C3(C)C.CS(=O)(=O)O (stereo partly drawn) : Tumor volume (mm^3) (D20) is 27.0

---

Examples of compounds with documented Solubility follow.
# details: physiological saline

1. CC(=O)O[C@@]12CO[C@@H]1CC[C@@]1(C)[C@@H]3O[C@H](CN(C)C)O[C@@H]3C3=C(C)[C@@H](OC(=O)[C@H](OC(=O)[C@H](F)CC(C)N(C)C)[C@@H](NC(=O)OC(C)(C)C)c4ncccc4F)C[C@@](O)([C@@H](OC(=O)c4ccccc4)[C@@H]12)C3(C)C.Cl (some centres unmarked)    1000 µg/mL

Summary for this compound, CC(=O)OC12COC1CCC1(C)C3OC(CN(C)C)OC3C3=C(C)C(OC(=O)C(OC(=O)C(F)CC(C)N(C)C)C(NC(=O)OC(C)(C)C)c4ncccc4F)CC(O)(C(OC(=O)c4ccccc4)C12)C3(C)C.CS(=O)(=O)O (centres unmarked) : Solubility is 12300 µg/mL

---

Examples of molecules with documented Sampling time/Dissociation percent (%) 5 min follow.
# assay-text: In vitro dissociation in blood plasma of rabbit
# Type: in vitro ADME, New Zealand white rabbits
# details: fresh New Zealand white rabbit plasma, 37° C., 5 min
Output should be the measured figure followed by the unit it is expressed in.

Solved entries:
1) CC(=O)OC1C(=O)C23CC2CC2OCC2(OC(C)=O)C3C(OC(=O)c2ccccc2)C2(O)CC(OC(=O)C(OC(=O)C(F)CC(C)N(C)C)C(NC(=O)OC(C)(C)C)c3ccccc3)C(C)=C1C2(C)C.CS(=O)(=O)O (stereo not shown)    94.1%
2) CO[C@H]1C(=O)[C@]2(C)[C@@H](OC)C[C@H]3OC[C@@]3(OC(C)=O)[C@H]2[C@H](OC(=O)c2ccccc2)[C@]2(O)C[C@H](OC(=O)[C@H](OC(=O)[C@@H](F)CCN(C)C)[C@@H](NC(=O)OC(C)(C)C)c3ccccc3)C(C)=C1C2(C)C.Cl    93.2%
3) CC(=O)O[C@H]1C(=O)[C@]23C[C@H]2C[C@H]2OC[C@@]2(OC(C)=O)[C@H]3[C@H](OC(=O)c2ccccc2)[C@]2(O)C[C@H](OC(=O)[C@H](OC(=O)[C@H](F)CC(C)N(C)C)[C@@H](NC(=O)OC(C)(C)C)c3ccccc3)C(C)=C1C2(C)C.Cl (stereo partly shown)    94.4%
4) CC(=O)O[C@H]1C(=O)[C@@]2(C)[C@H]([C@H](OC(=O)c3ccccc3)[C@]3(O)C[C@H](OC(=O)[C@H](OC(=O)[C@H](F)CCN(C)C)[C@@H](NC(=O)c4ccccc4)c4ccccc4)C(C)=C1C3(C)C)[C@]1(OC(C)=O)CO[C@@H]1C[C@@H]2O.CS(=O)(=O)O    98.4%
5) CCN(CC)CC[C@](C)(C(=O)O[C@@H](C(=O)O[C@H]1C[C@@]2(O)[C@@H](OC(=O)c3ccccc3)[C@@H]3[C@]4(OC(C)=O)CO[C@@H]4C[C@H](OC)[C@@]3(C)C(=O)[C@H](OC)C(=C1C)C2(C)C)[C@@H](NC(=O)OC(C)(C)C)c1ccccc1)C(F)(F)F.CS(=O)(=O)O    80.5%

Summary for this molecule, CC(=O)O[C@@]12CO[C@@H]1C[C@H](O)[C@@]1(C)C(=O)[C@H](O)C3=C(C)[C@@H](OC(=O)[C@H](OC(=O)C(F)CCN(C)C)[C@@H](NC(=O)OC(C)(C)C)c4ccccc4)C[C@@](O)([C@@H](OC(=O)c4ccccc4)[C@H]21)C3(C)C.Cl (stereo partly shown) : Sampling time/Dissociation percent (%) 5 min is 98.6%

Summary for this molecule, CC(=O)O[C@@]12CO[C@@H]1C[C@H](O)[C@@]1(C)C(=O)[C@H](O)C3=C(C)[C@@H](OC(=O)[C@H](OC(=O)[C@H](F)CC(C)N(C)C)[C@@H](NC(=O)OC(C)(C)C)c4ccccc4)C[C@@](O)([C@@H](OC(=O)c4ccccc4)[C@H]21)C3(C)C.Cl (stereo partly shown) : Sampling time/Dissociation percent (%) 5 min is 78.9%

---

Examples of molecules with documented Sampling time/Dissociation percent (%) 2 min follow.
# assay-text: In vitro dissociation in blood plasma of rat
# Type: in vitro ADME, SD rats
# details: fresh SD rat plasma, 37° C., 2 min incubation
Where a name gives a salt, the structure may show the parent alone.
Report only the number, with the unit % understood.

1) CO[C@H]1C(=O)[C@]2(C)[C@@H](OC)C[C@H]3OC[C@@]3(OC(C)=O)[C@H]2[C@H](OC(=O)c2ccccc2)[C@]2(O)C[C@H](OC(=O)[C@H](OC(=O)[C@H](F)CCN(C)C)[C@@H](NC(=O)OC(C)(C)C)c3ccccc3)C(C)=C1C2(C)C.CS(=O)(=O)O    49.7
2) CO[C@H]1C(=O)[C@]2(C)[C@@H](OC)C[C@H]3OC[C@@]3(OC(C)=O)[C@H]2[C@H](OC(=O)c2ccccc2)[C@]2(O)C[C@H](OC(=O)[C@H](OC(=O)[C@H](F)CCN(C)C)[C@@H](NC(=O)OC(C)(C)C)c3ccccc3)C(C)=C1C2(C)C [Compound 07, hydrochloride]    49.5
3) CC(=O)O[C@@]12CO[C@@H]1C[C@H](O)[C@@]1(C)C(=O)[C@H](O)C3=C(C)[C@@H](OC(=O)[C@H](OC(=O)[C@H](F)CC(C)N(C)C)[C@@H](NC(=O)OC(C)(C)C)c4ccccc4)C[C@@](O)([C@@H](OC(=O)c4ccccc4)[C@H]21)C3(C)C.Cl (stereo partly shown)    44.8

For the next question, use this molecule.
Summary for this molecule, CC(=O)O[C@@]12CO[C@@H]1C[C@H](O)[C@@]1(C)C(=O)[C@H](O)C3=C(C)[C@@H](OC(=O)[C@H](OC(=O)C(F)CCN(C)C)[C@@H](NC(=O)OC(C)(C)C)c4ccccc4)C[C@@](O)([C@@H](OC(=O)c4ccccc4)[C@H]21)C3(C)C.CS(=O)(=O)O (stereo partly shown) : Sampling time/Dissociation percent (%) 2 min is 59.1
